Target: T1, human CCR8 (human, UniProt P51685 1-355)
T1 construct: whole, on cells; the cell line is named under assay; also called hCCR8
T1 sequence (P51685 whole entry): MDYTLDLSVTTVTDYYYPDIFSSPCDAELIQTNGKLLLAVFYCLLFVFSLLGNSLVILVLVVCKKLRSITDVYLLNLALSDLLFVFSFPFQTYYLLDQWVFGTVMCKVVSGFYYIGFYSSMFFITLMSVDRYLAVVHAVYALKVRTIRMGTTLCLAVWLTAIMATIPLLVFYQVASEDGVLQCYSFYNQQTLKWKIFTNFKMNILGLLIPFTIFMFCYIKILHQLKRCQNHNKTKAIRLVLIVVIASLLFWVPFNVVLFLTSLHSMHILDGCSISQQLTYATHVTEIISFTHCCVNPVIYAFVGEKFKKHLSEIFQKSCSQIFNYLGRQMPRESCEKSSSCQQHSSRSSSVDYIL
Test: flow cytometry, competition with 10 nM AF647-human CCL1 on 293F-hCCR8 cells

binder: 559E1B10_hzH3L0_hIgG1 (antibody, V domains shown, Humanized, hIgG1/K) VH: KVQLVQSGAEVKKPGASVKVSCKASGYTFTDYYVNWVRQAPGQGLEWIGVINPHNGDTRYNQKFKGKATLTVDKSTSTAYMELSSLRSEDTAVYYCASWLRRGYYFDSWGQGTTVTVSS VL: EIVLTQSPATLSLSPGERATLSCRASQSISDYLHWYQQKPGQAPRLLIYYVSQSISGIPARFSGSGSGTDFTLTISSLEPEDFAVYYCQNGHSFPLTFGGGTKVEIKR
IC50 (µg/mL): 0.443
//
binder: 27B9-1G3_hzH2L1_hIgG1 (antibody, V domains shown, Humanized, hIgG1/K; hzVH02 + hzVL01) VH: QVQLVQSGAEVKKPGSSVKVSCKASGYSFTGYNMNWVRQAPGQGLEWMGNIDPYYGGTNYNQKFKGRVTITADKSTSTAYMELSSLRSEDTAVYYCARETWFITTGVIKKGFYFDYWGQGTTVTVSS VL: EIVLTQSPATLSLSPGERATLSCSASSIISSNYLHWYQQKPGQAPRLLIYRTSSLASGIPARFSGSGSGTDFTLTISSLEPEDFAVYYCQQGSSIPRTFGGGTKVEIKR
IC50 (µg/mL): 0.269
//
binder: 27B9-1G3_hzH1L1_hIgG1 (antibody, V domains shown, Humanized, hIgG1/K; hzVH01 + hzVL01) VH: QVQLVQSGAEVKKPGSSVKVSCKASGGTFSGYNMNWVRQAPGQGLEWMGNIDPYYGGTNYNQKFKGRVTITADKSTSTAYMELSSLRSEDTAVYYCARETWFITTGVIKKGFYFDYWGQGTTVTVSS VL: EIVLTQSPATLSLSPGERATLSCSASSIISSNYLHWYQQKPGQAPRLLIYRTSSLASGIPARFSGSGSGTDFTLTISSLEPEDFAVYYCQQGSSIPRTFGGGTKVEIKR
IC50 (µg/mL): 0.31
//
binder: 27B9-1G3_hzH2L2_hIgG1 (antibody, V domains shown, Humanized, hIgG1/K; hzVH02 + hzVL02) VH: QVQLVQSGAEVKKPGSSVKVSCKASGYSFTGYNMNWVRQAPGQGLEWMGNIDPYYGGTNYNQKFKGRVTITADKSTSTAYMELSSLRSEDTAVYYCARETWFITTGVIKKGFYFDYWGQGTTVTVSS VL: EIVLTQSPATLSLSPGERATLACSASSIISSNYLHWYQQKPGQAPRLLIYRTSSLASGIPARFSGSGSGTDYTLTISSLEPEDFAVYYCQQGSSIPRTFGGGTKVEIKR
IC50 (µg/mL): 0.299
//
binder: 27B9-1G3_hzH1L3_hIgG1 (antibody, V domains shown, Humanized, hIgG1/K; hzVH01 + hzVL03) VH: QVQLVQSGAEVKKPGSSVKVSCKASGGTFSGYNMNWVRQAPGQGLEWMGNIDPYYGGTNYNQKFKGRVTITADKSTSTAYMELSSLRSEDTAVYYCARETWFITTGVIKKGFYFDYWGQGTTVTVSS VL: EIVLTQSPATLSLSPGERATLACSASSIISSNYLHWYQQKPGQSPRLLIYRTSSLASGVPARFSGSGSGTSYTLTISSLEPEDFAVYYCQQGSSIPRTFGGGTKVEIKR
IC50 (µg/mL): 0.228

Value source: patent EP4624492A1
